- Assay System: recombinant pentameric gH complex (Towne strain) (human cytomegalovirus, Towne strain) (UniProt P17176)
- Sequence (P17176 30-715, one chain of several): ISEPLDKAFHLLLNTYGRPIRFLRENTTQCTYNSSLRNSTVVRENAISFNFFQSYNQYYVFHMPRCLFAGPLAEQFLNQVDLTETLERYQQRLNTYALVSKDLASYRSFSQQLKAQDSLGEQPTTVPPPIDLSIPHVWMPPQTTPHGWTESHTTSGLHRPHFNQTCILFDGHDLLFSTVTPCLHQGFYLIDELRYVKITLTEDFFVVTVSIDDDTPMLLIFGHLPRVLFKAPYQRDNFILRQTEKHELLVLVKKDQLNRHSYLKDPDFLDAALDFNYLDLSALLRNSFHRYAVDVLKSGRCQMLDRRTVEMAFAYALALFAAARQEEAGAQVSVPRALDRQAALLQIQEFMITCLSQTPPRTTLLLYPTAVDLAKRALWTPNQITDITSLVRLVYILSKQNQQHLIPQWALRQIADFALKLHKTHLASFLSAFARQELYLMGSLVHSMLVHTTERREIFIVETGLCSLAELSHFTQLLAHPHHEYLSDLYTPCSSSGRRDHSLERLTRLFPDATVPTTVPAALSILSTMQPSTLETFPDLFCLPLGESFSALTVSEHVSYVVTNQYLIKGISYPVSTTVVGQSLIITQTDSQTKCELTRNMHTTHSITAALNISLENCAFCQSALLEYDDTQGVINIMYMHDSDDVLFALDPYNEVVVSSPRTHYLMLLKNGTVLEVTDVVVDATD
- Protocol: BLI competition on His-pentamer; competitor (antibody 2): 3-7
Item-by-item account of Pair-wise inhibition (%)
Endpoint Name: Pair-wise inhibition (%)

>  <Binder>
1-103 (antibody, V domains shown) VH: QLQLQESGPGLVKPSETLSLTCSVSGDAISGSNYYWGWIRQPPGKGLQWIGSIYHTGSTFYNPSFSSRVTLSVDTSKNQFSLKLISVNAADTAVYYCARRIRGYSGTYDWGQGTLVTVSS VL: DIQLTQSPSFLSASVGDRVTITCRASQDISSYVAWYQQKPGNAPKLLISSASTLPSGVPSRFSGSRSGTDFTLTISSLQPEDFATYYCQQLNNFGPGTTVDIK

>  <Endpoint Name>
Pair-wise inhibition (%)

>  <Measured Number>
-12

$$$$
>  <Binder>
1-32 (antibody, V domains shown) VH: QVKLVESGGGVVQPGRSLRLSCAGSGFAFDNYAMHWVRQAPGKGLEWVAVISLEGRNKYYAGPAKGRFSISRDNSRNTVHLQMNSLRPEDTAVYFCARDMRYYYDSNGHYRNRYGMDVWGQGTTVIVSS VL: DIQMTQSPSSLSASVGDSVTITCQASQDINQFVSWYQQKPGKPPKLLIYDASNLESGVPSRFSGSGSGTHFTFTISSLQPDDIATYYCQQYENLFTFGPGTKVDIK

>  <Endpoint Name>
Pair-wise inhibition (%)

>  <Measured Number>
8

$$$$
>  <Binder>
3-16 (antibody, V domains shown) VH: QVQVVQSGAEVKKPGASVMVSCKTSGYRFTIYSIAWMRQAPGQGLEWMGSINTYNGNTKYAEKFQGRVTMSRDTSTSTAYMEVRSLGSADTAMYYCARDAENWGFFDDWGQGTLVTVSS VL: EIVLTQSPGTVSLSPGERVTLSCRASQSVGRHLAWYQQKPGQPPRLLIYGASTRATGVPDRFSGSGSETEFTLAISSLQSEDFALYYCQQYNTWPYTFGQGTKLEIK

>  <Endpoint Name>
Pair-wise inhibition (%)

>  <Measured Number>
79

$$$$
>  <Binder>
1-85 (antibody, V domains shown) VH: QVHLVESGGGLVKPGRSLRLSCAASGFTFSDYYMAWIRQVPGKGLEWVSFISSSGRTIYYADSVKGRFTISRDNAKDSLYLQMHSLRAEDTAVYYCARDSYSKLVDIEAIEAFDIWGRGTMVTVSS VL: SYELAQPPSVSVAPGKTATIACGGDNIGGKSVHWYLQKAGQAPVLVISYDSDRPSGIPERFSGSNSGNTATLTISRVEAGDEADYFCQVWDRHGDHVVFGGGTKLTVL

>  <Endpoint Name>
Pair-wise inhibition (%)

>  <Measured Number>
27

$$$$
>  <Binder>
3-7 (antibody, V domains shown) VH: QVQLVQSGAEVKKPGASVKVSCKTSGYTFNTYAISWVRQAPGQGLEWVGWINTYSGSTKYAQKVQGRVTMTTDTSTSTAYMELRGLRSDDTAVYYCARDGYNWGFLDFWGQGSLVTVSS VL: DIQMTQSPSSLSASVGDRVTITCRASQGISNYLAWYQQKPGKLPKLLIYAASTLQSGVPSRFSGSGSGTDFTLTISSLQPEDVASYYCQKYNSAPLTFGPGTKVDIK

>  <Endpoint Name>
Pair-wise inhibition (%)

>  <Measured Number>
91

$$$$

The measured values listed here are drawn from patent US11230591.
